- experimental-target: Beta-secretase 1 (Homo sapiens) (UniProt P56817)
- Sequence (P56817 whole entry): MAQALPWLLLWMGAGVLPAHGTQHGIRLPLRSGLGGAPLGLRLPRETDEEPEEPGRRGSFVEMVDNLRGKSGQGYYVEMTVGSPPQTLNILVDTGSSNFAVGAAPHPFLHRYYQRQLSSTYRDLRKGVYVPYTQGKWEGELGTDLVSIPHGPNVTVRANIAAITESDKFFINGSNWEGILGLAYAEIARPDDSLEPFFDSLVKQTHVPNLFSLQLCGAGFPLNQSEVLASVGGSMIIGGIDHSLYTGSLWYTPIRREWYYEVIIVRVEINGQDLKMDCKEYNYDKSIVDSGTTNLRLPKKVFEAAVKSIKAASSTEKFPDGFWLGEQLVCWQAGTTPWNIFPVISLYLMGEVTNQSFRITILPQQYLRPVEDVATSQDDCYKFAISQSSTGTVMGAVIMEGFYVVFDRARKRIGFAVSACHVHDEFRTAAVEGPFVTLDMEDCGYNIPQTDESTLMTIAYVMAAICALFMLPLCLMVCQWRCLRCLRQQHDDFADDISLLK
- experiment-notes: Activity of recombinant BACE assessed as substrate cleavage at 300 uM after 3 hrs by HPLC analysis
Active and inactive are the calls of the source. No cut-off for these calls is given here. Non-standard residues stand in square brackets, D forms with d. Residues, ends and D or L forms follow the SMILES beside them. 2Thi = N[C@@H](Cc1cccs1)C(=O)O; Abu = CC[C@H](N)C(=O)O
measured-attribute: Activity

compound: CC[C@H](C)[C@H](N)C(=O)N[C@@H](CO)C(=O)N[C@@H](CCC(=O)O)C(=O)N[C@H](C(=O)N[C@@H](Cc1cccs1)C(=O)N[C@@H](CC(C)C)C(=O)N[C@@H](CC(=O)O)C(=O)N[C@@H](C)C(=O)N[C@@H](CCC(=O)O)C(=O)N[C@@H](Cc1ccccc1)C(=O)N[C@@H](CCCNC(=N)N)C(=O)N[C@@H](Cc1cnc[nH]1)C(N)=O)C(C)C (H-ISEV[2Thi]LDAEFRH-NH2)
Activity: Active
//
compound: CC[C@H](C)[C@H](N)C(=O)N[C@@H](CO)C(=O)N[C@@H](CCC(=O)O)C(=O)N[C@H](C(=O)N[C@@H](CC(N)=O)C(=O)N[C@@H](CC(C)C)C(=O)N[C@@H](CCSC)C(=O)N[C@@H](C)C(=O)N[C@@H](CCC(=O)O)C(=O)N[C@@H](Cc1ccccc1)C(=O)N[C@@H](CCCNC(=N)N)C(=O)N[C@@H](Cc1cnc[nH]1)C(N)=O)C(C)C (H-ISEVNLMAEFRH-NH2)
Activity: Active
//
compound: CC[C@H](C)[C@H](N)C(=O)N[C@@H](CO)C(=O)N[C@@H](CCC(=O)O)C(=O)N[C@H](C(=O)N[C@@H](CC(=O)O)C(=O)N[C@@H](CC(C)C)C(=O)N[C@@H](CC(=O)O)C(=O)N[C@@H](C)C(=O)N[C@@H](CCC(=O)O)C(=O)N[C@@H](Cc1ccccc1)C(=O)N[C@@H](CCCNC(=N)N)C(=O)N[C@@H](Cc1cnc[nH]1)C(N)=O)C(C)C (H-ISEVDLDAEFRH-NH2)
Activity: Active
//
compound: CC[C@H](C)[C@H](N)C(=O)N[C@@H](CO)C(=O)N[C@@H](CCC(=O)O)C(=O)N[C@H](C(=O)N[C@@H](CC(N)=O)C(=O)N[C@@H](CC(=O)O)C(=O)N[C@@H](CC(=O)O)C(=O)N[C@@H](C)C(=O)N[C@@H](CCC(=O)O)C(=O)N[C@@H](Cc1ccccc1)C(=O)N[C@@H](CCCNC(=N)N)C(=O)N[C@@H](Cc1cnc[nH]1)C(N)=O)C(C)C (H-ISEVNDDAEFRH-NH2)
Activity: Active
//
compound: CC[C@H](NC(=O)[C@H](CC(N)=O)NC(=O)[C@@H](NC(=O)[C@H](CCC(=O)O)NC(=O)[C@H](CO)NC(=O)[C@@H](N)[C@@H](C)CC)C(C)C)C(=O)N[C@@H](CC(=O)O)C(=O)N[C@@H](C)C(=O)N[C@@H](CCC(=O)O)C(=O)N[C@@H](Cc1ccccc1)C(=O)N[C@@H](CCCNC(=N)N)C(=O)N[C@@H](Cc1cnc[nH]1)C(N)=O (H-ISEVN[Abu]DAEFRH-NH2)
Activity: Active

Here is the next item to consider.
IN: What Activity value was documented for this compound, CC[C@H](C)[C@H](N)C(=O)N[C@@H](CO)C(=O)N[C@@H](CCC(=O)O)C(=O)N[C@H](C(=O)N[C@@H](CC(N)=O)C(=O)N[C@@H](Cc1cccs1)C(=O)N[C@@H](CC(=O)O)C(=O)N[C@@H](C)C(=O)N[C@@H](CCC(=O)O)C(=O)N[C@@H](Cc1ccccc1)C(=O)N[C@@H](CCCNC(=N)N)C(=O)N[C@@H](Cc1cnc[nH]1)C(N)=O)C(C)C (H-ISEVN[2Thi]DAEFRH-NH2) ?
OUT: 70%
